Source listed as patent US10738015B2.

target: human nociceptin/orphanin FQ peptide (hNOP) receptor (Homo sapiens (Human), UniProt P41146); test: hNOP receptor binding assay (SPA); conditions: Ki; displacement of [leucyl-3H]nociceptin, hNOP receptor membranes; read-out: hNOP Ki [nM] or % inhibition at 1 μM
REPORTED PROPERTY: Ki (nM)
Write down the numeric answer in nM and omit the unit.

Example compounds with recorded Ki:
RECORD SMILES	Ki [nM]
Cc1cc(C#N)cnc1N1C[C@]2(C[C@](c3cccc(F)c3)(N(C)C)C2)N(CC2CC2)C1=O	31
Cc1cc(N2CCOCC2)ncc1N1C[C@]2(C[C@](c3ccccc3)(N(C)C)C2)NC1=O	1810
CN(C)[C@]1(c2ccccc2)C[C@@]2(CN(c3ccc(OC(F)(F)F)cn3)C(=O)N2CC2CC2)C1	36

What the record says about `CN(C)[C@]1(c2ccccc2)C[C@@]2(CN(c3cncc(C(F)(F)F)c3)C(=O)N2CC2CC2)C1` : Ki is 5

Ki for `CN(C)[C@]1(c2cccc(F)c2)C[C@@]2(CN(c3ccc(C(C)(C)O)cc3)C(=O)N2CC2CC2)C1` is 46

Per the records, this compound ( `CN(C)[C@]1(c2cccc(F)c2)C[C@@]2(CN(c3ccc(OC(F)(F)F)cn3)C(=O)N2CC2CC2)C1` ) has Ki equal to 55

Lab note: `CN(C)[C@]1(c2ccccc2)C[C@@]2(CN(CCC#N)C(=O)N2CC2CC2)C1` gave Ki of 25

The compound listed as `CN(C)[C@]1(c2ccccc2)C[C@@]2(CN(CC(=O)N3CCS(=O)(=O)CC3)C(=O)N2)C1` has a reported Ki of 850

====

Target: human nociceptin/orphanin FQ peptide (hNOP) receptor (Homo sapiens (Human), UniProt P41146)
Assay: hNOP receptor binding assay (SPA)
Conditions: Ki; displacement of [leucyl-3H]nociceptin, hNOP receptor membranes; read-out: hNOP Ki [nM] or % inhibition at 1 μM
Protocol: Human Nociceptin/Orphanin FQ Peptide (hNOP) Receptor Binding Assay The hNOP receptor binding assay was performed as homogeneous SPA-assay (scintillation proximity assay) using the assay buffer 50 mM TRIS-HCl, 10 mM MgCl2, 1 mM EDTA (pH 7.4). […] After incubation for 60 minutes at RT and centrifugation for 20 minutes at 500 rpm the signal rate was measured by means of a 1450 Microbeta Trilux ß-counter (PerkinElmer Life Sciences/Wallac. Turku. Finland). […]
Examples of molecules with documented Ki follow.
Your answer should be a plain number; it is taken to be in nM.

RECORD SMILES	Ki / nM
CN(C)[C@]1(c2ccccc2)C[C@@]2(CN(c3cnc(-c4ccncc4)nc3)C(=O)N2CC2CC2)C1	31
CN(C)[C@]1(c2ccccc2)C[C@]2(CN(CC(=O)N3CCS(=O)(=O)CC3)C(=O)N2)C1	860
CN(C)[C@]1(c2ccccc2)C[C@@]2(CN(CC3(O)CCC3)C(=O)N2CC2CC2)C1	29

Please turn your attention to the following entry.
Quick note, Ki for `Cc1cc(N2CCC2)ncc1N1C[C@]2(C[C@](c3ccccc3)(N(C)C)C2)NC1=O` landed at 860

====

Listed next: entries and their corresponding Ki.
target: human nociceptin/orphanin FQ peptide (hNOP) receptor (Homo sapiens (Human)); assay: hNOP receptor binding assay (SPA); conditions: Ki; displacement of [leucyl-3H]nociceptin, hNOP receptor membranes; read-out: hNOP Ki [nM] or % inhibition at 1 μM
Kindly provide the numeric value in nM only, without the unit symbol.

RECORD SMILES	Ki (nM)
Cc1cc(C(F)F)ncc1N1C[C@]2(C[C@](c3cccc(F)c3)(N(C)C)C2)N(CC2CC2)C1=O	23
CN(C)[C@]1(c2ccccc2)C[C@@]2(CN(c3cnc(C#N)c(C(F)(F)F)c3)C(=O)N2CC2CC2)C1	6
COc1nc(C#N)ncc1N1C[C@]2(C[C@@](c3ccccc3)(N(C)C)C2)N(CC2CCC2)C1=O	99

Next:
The recorded Ki for entry `COC(C)(C)CN1C[C@]2(C[C@](c3cccc(F)c3)(N(C)C)C2)N(CC2CC2)C1=O` equals 37
